- measured_target: human nerve growth factor (beta-NGF) (human, UniProt P01138 122-241)
- Sequence (P01138 122-241): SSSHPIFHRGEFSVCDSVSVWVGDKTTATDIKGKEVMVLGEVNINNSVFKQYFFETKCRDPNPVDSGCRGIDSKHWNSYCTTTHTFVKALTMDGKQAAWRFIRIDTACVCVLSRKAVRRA
- assay_info: cell-based or functional assay
endpoint: IC50, FLIPR calcium mobilisation (nM)
One number for each entry, in nM.

Would you please look over these solved cases?
>  <binder>
1227H8 human IgG4 (antibody, V domains shown) VH: QMQLVQSGAEVKKTGSSVKVSCKASGHTFAYHYLHWVRQAPGQGLEWMGGIIPIFGTTNYAQRFQDRVTITADESTSTAYMELSSLRSEDTAVYYCASADYAWESYQPPQINGVWGRGTMVTVSS VL: QSVLTQPPSVSAAPGQKVTITCSGSTSNIGNNYVSWYQQHPGKAPKLMIYDVSKRPSGVPDRFSGSKSGNSASLDISGLQSEDEADYYCAAWDDSLSEFFFGTGTKLTVL

>  <reading_unit>
nM

>  <IC50, FLIPR calcium mobilisation>
0.44

$$$$
>  <binder>
1147D2 human IgG4 (antibody, V domains shown) VH: EVQLVQSGAEVKKPGSSVRISCKASGGTFSTYGVSWVRQAPGQGLEWIGGIIPIFDTGNSAQSFQGRVTITADESTSTAYMEVSSLRSDDTAVYYCASSSRIYDLNPSLTAYYDMDVWGQGTMVTVSS VL: QAVLTQPSSVSTPPGQKVTISCSGSSSNIGNNYVSWYQQLPGTAPKLLIYDNNKRPSGVPDRFSGSKSGTSATLGITGLQTGDEADYYCGTWDSSLSAWVFGGGTKLTVL

>  <reading_unit>
nM

>  <IC50, FLIPR calcium mobilisation>
0.36

$$$$

// next item, IC50, FLIPR calcium mobilisation requested
Noted for 1021E5 human IgG4 (antibody, V domains shown) VH: EVQLVQSGAEVKKPGSSVKVSCKASGGTFSTYGISWVRQAPGQGLEWIGGIIPIFDTGNSAQSFQGRVTITADESTSTAYMEVSSLRSDDTAVYYCASSSRIYDYAGGDHYYYDMDVWGQGTMVTVSS VL: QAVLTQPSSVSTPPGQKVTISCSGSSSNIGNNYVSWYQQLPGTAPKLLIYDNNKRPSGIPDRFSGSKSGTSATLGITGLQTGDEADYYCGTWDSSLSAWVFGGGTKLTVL : its IC50, FLIPR calcium mobilisation reads 76

Where these numbers come from: patent US20080107658A1
